molecular target: UniProt:Q9H0K1; experiment: SIK2 Enzymatic Assay Version 1 (ADP Glo); type: biochemical; conditions: enzyme 0.6 nM, 160 μM ATP and 140 μM HDAC5tide (each 2× final concentration); 30 minutes pre-incubation, 4 hours; ADPGlo luminescence; read-out: SIK2 ADP Glo IC50 (μM) (Test Example 1)
Sequence (Q9H0K1 whole entry, species assumed): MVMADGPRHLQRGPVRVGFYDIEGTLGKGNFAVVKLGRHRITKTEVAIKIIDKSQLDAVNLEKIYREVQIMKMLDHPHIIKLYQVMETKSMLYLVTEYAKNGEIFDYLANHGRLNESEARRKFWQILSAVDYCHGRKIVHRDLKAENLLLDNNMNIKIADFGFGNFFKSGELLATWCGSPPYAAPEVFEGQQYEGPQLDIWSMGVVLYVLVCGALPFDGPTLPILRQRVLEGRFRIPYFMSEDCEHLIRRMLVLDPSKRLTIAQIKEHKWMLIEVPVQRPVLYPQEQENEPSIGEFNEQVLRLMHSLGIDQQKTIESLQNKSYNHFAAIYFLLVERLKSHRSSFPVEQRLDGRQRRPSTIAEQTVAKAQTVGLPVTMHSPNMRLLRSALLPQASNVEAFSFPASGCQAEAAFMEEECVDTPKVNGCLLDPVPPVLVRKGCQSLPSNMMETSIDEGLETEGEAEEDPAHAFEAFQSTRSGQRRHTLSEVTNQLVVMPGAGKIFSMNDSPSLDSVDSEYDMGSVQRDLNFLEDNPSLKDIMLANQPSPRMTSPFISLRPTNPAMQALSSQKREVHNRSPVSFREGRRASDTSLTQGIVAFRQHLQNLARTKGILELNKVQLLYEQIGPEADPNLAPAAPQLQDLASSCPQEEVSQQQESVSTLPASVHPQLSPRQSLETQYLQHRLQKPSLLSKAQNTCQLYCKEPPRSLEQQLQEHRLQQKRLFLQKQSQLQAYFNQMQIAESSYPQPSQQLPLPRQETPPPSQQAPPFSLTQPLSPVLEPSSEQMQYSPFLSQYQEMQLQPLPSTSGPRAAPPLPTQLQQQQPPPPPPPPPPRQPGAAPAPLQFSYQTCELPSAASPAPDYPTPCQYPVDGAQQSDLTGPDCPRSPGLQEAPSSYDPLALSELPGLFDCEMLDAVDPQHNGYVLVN
Assign IC50 to each entry below.
Numeric answer only, unit µM assumed.

Answer with the recorded IC50 for the compound listed here: CC1(C)CNC[C@@H](COc2ccc(C#N)cc2-c2ccn3nc(NC(=O)C4CC4)cc3c2)O1
0.00588

Answer with the recorded IC50 of N#Cc1cc(-c2ccn3nc(NC(=O)C4CC4)cc3c2)c(O[C@@H]2CCN(Cc3ccccn3)C2)cn1 only.
0.00356

Give the reported value of IC50 for this record: N#Cc1cc(-c2ccn3nc(NC(=O)C4CC4)cc3c2)c(O[C@@H]2CNC[C@H](C(F)(F)F)C2)cn1
0.000435

For the compound N#CCN1CC[C@@H](Oc2cnc(C#N)cc2-c2ccn3nc(NC(=O)C4CC4)cc3c2)C1 , report IC50.
0.000393

Read off the recorded IC50 for Cc1cc(-c2ccn3nc(NC(=O)C4CC4)cc3c2)c(OC[C@H](N)C(C)(C)C)cn1
0.00644

Query IC50 for CN1CCC[C@H](Oc2cnc(C#N)cc2-c2ccn3nc(NC(=O)C4CC4)cc3c2)C1
0.00871

Query IC50 for N#Cc1ccc(OC[C@H]2CNCCO2)c(-c2ccn3nc(NC(=O)C4CC4)cc3c2)c1
0.00263

Name the recorded IC50 of the compound listed here: Cc1cc(-c2ccn3nc(NC(=O)C4CC4)cc3c2)c(O[C@H]2CCN(C)C2)cn1
0.0033
